- Measured Target: Glutamate NMDA receptor
- Method Notes: Tested for the binding affinity at glycine recognition site of the NMDA receptor in rat cortical membranes using radiolabeled [3H]-L-689,560 560
- Format: cell membranes, Membrane
Measured Quantity: IC50 (nM)

1. O=C(C[C@H]1C[C@H](C(=O)O)Nc2cc(Cl)cc(Cl)c21)Nc1ccccc1; 19
2. O=C(Cc1ccccc1)N[C@H]1C[C@H](C(=O)O)Nc2cc(Cl)cc(Cl)c21; 14

====

- Measured Target: Glutamate NMDA receptor
- Method Notes: Tested for the binding affinity at glycine recognition site of the NMDA receptor in rat cortical membranes using radiolabeled [3H]- L-689 560
- Type: cell membranes, Membrane
Recorded IC50, one value per entry.
Measured Quantity: IC50 (nM)

1) O=C(O)C[C@H]1C[C@H](C(=O)O)Nc2cc(Cl)cc(Cl)c21; 74
2) CN(C(=O)Nc1ccccc1)[C@H]1C[C@H](C(=O)O)Nc2cc(Cl)cc(Cl)c21; 9
3) NC(Cc1ccc(CC(=O)N[C@H]2C[C@H](C(=O)O)Nc3cc(Cl)cc(Cl)c32)cc1)C(=O)O (some centres undefined); 32
4) NCc1ccc(CC(=O)N[C@H]2C[C@H](C(=O)O)Nc3cc(Cl)cc(Cl)c32)cc1; 19

====

- Method Notes: Partition coefficient (logP)
- Format: physicochemical
- Details: octanol/water
Measured Quantity: logP

1) O=C(Cc1ccccc1)N[C@H]1C[C@H](C(=O)O)Nc2cc(Cl)cc(Cl)c21; 0.55

Where these numbers come from: ChEMBL document CHEMBL1127099
